- system.tested: UniProtKB Q59961
- Sequence (Q59961 whole entry): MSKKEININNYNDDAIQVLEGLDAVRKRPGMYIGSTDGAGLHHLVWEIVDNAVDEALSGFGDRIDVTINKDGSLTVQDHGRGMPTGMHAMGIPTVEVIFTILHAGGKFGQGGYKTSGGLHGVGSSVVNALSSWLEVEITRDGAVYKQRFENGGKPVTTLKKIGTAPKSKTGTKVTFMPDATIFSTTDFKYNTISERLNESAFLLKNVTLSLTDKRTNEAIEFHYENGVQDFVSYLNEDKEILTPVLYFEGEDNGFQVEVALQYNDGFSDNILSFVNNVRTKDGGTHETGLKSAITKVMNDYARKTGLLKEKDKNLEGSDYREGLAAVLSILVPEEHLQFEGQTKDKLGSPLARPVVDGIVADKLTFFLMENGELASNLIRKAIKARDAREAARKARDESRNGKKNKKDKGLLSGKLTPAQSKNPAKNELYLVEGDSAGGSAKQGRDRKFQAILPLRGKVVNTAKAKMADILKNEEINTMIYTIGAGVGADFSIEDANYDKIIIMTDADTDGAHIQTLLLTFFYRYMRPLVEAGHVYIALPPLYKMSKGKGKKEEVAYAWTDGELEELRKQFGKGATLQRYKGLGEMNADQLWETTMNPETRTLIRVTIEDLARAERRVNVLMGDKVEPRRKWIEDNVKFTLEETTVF
- assay.explanation: S. pneumoniae Topoisomerase IV ATPase inhibition
- Format: biochemical
- measurement.context: values marked * are an average of two or more data points, read-out: % Inh (13 μM) of S. pneumoniae Topoisomerase IV ATPase
Assign 1.0 whenever inhibition at 13 µM does not fall below 80%; assign 0.0 whenever it does.

CCOC(=O)c1cncc(-c2cnc(Nc3ccc(F)c(Cl)c3)nc2N2C(C)CCC2C)c1 (stereo not shown); 0.0
CCS(=O)(=O)NC(=O)c1cc(-c2cnc(Nc3cc(OC)cc(OC)c3)nc2-n2nc(C(F)(F)F)cc2C)cn(CCOC)c1=O; 1.0
COc1ncc(-c2cnc(Nc3ccc(F)c(Cl)c3)nc2NC2CCOC2)cn1 (stereo not shown); 0.0
Fc1ccc(Nc2ncc(-c3cncnc3)c(-n3nnc4ncccc43)n2)cc1Cl; 1.0
COc1cc(-c2cnc(Nc3ccc(F)c(Cl)c3)nc2NCCCN(C)C)cc(OC)c1OC; 1.0
COc1cc(Nc2ncc(-c3cc(C(=O)O)c(=O)n(CCS(C)(=O)=O)c3)c(-n3ccc(C(F)(F)F)n3)n2)cc(OC)c1; 1.0
Cc1cc(C(F)(F)F)nn1-c1nc(Nc2ccc(F)c(Cl)c2)ncc1-c1ccc2c(c1)C(=O)NC2=O; 0.0
CC(C)Nc1nc(Nc2ccc(F)c(Cl)c2)ncc1-c1cncc(C(=O)O)c1; 1.0
CS(=O)(=O)CC(=O)c1cncc(-c2cnc(Nc3ccc(F)c(Cl)c3)nc2-n2ccc(C(F)(F)F)n2)c1; 1.0
O=C(O)CCC(=O)Nc1cccc(-c2cnc(Nc3ccc(F)c(Cl)c3)nc2N2CCOCC2)c1; 1.0
Cc1cc(C(F)(F)F)nn1-c1nc(Nc2ccc(F)c(Cl)c2)ncc1-c1cncc(C(N)=O)c1; 1.0
Cc1cc(C)cc(Nc2ncc(-c3cncc(C(=O)O)c3)c(-n3ccc(C(F)(F)F)n3)n2)c1; 1.0
COc1cc(Nc2ncc(-c3ccc(C(=O)O)s3)c(-n3nc(C(F)(F)F)cc3C)n2)cc(C(F)(F)F)c1; 1.0
Fc1ccc(Nc2ncc(-c3nc4ccccc4[nH]3)c(N3CCOCC3)n2)cc1Cl; 0.0
COCCCNc1nc(Nc2ccc(F)c(Cl)c2)ncc1-c1nc(-c2cncn2C)cs1; 1.0
COc1cc(Nc2ncc(-c3ccc(C(=O)O)s3)c(NCCCN(C)C)n2)cc(OC)c1; 1.0
CCOC(=O)c1cncc(-c2cnc(Nc3ccc(F)c(Cl)c3)nc2N[C@H](C)C(=O)OC)c1; 0.0
CON(C)C(=O)c1cccc(-c2cnc(Nc3ccc(F)c(Cl)c3)nc2-n2ccc(C(F)(F)F)n2)c1; 1.0
Cc1cc(C)cc(Nc2ncc(-c3ccc4c(c3)C(=O)NS4(=O)=O)c(-n3ccc(C(F)(F)F)n3)n2)c1; 1.0
O=C(O)c1ccc(-c2cnc(Nc3ccc(F)c(Cl)c3)nc2-n2ccnc2)s1; 1.0
CCOC(=O)c1cncc(-c2cnc(Nc3ccc(F)c(Cl)c3)nc2NCc2cccnc2)c1; 0.0
COCCCNc1nc(Nc2ccc(F)c(Cl)c2)ncc1-c1ccc2cc(C(=O)OC)[nH]c2c1; 0.0
Cc1cc(C(F)(F)F)nn1-c1nc(Nc2cccc(F)c2)ncc1-c1cncc(C(=O)O)c1; 1.0
O=C(O)c1cncc(-c2cnc(Nc3ccc(F)c(C(F)(F)F)c3)nc2N2CCOCC2)c1; 0.0
CS(=O)(=O)c1cccc(Nc2ncc(-c3cccc(/C=C/C(=O)O)c3)c(-n3ccc(C(F)(F)F)n3)n2)c1; 1.0
